- Species: Homo sapiens
- EXPERIMENT SUMMARY: Selectivity index, ratio of Ki for recombinant human furin expressed in drosophila S2 cells to Ki for recombinant human PACE4 expressed in drosophila S2 cells
- Assay type: cell-based
Peptide text beside a SMILES is read from it. * marks the point of attachment. NH(4-amidinobenzyl) = N=C(N)c1ccc(CN*)cc1
Cut-off 0.8 on Ratio Ki: below means label 1, at or above means label 0.

CC(=O)N[C@@H](CC(C)C)C(=O)N[C@@H](CC(C)C)C(=O)N[C@@H](CCCNC(=N)N)C(=O)N[C@@H](CC(C)C)C(=O)N[C@@H](CCCNC(=N)N)C(=O)N[C@H](C(=O)N[C@@H](CCCCN)C(=O)NCc1ccc(C(=N)N)cc1)C(C)C (Ac-LLRLRVK-{NH(4-amidinobenzyl)})	label 1

Is 0.8 strictly greater than the compound's reported Ratio Ki? compound: CC(=O)N1CCC[C@H]1C(=O)N[C@@H](CC(C)C)C(=O)N[C@@H](CC(C)C)C(=O)N[C@@H](CC(C)C)C(=O)N[C@@H](CCCNC(=N)N)C(=O)N[C@H](C(=O)N[C@@H](CCCCN)C(=O)NCc1ccc(C(=N)N)cc1)C(C)C (Ac-PLLLRVK-{NH(4-amidinobenzyl)})
label 1

Is 0.8 strictly greater than the compound's reported Ratio Ki? compound: CC[C@H](C)[C@H](NC(=O)[C@H](CC(C)C)NC(=O)[C@H](CC(C)C)NC(C)=O)C(=O)N[C@@H](CC(C)C)C(=O)N[C@@H](CCCNC(=N)N)C(=O)N[C@H](C(=O)N[C@@H](CCCCN)C(=O)NCc1ccc(C(=N)N)cc1)C(C)C (Ac-LLILRVK-{NH(4-amidinobenzyl)})
label 0

Is 0.8 strictly greater than the compound's reported Ratio Ki? compound: CC(=O)N[C@@H](CC(C)C)C(=O)N[C@@H](CC(C)C)C(=O)N[C@@H](CC(C)C)C(=O)N[C@@H](Cc1c[nH]c2ccccc12)C(=O)N[C@@H](CCCNC(=N)N)C(=O)N[C@H](C(=O)N[C@@H](CCCCN)C(=O)NCc1ccc(C(=N)N)cc1)C(C)C (Ac-LLLWRVK-{NH(4-amidinobenzyl)})
label 0

Is 0.8 strictly greater than the compound's reported Ratio Ki? compound: CC(=O)N[C@@H](CC(C)C)C(=O)N[C@@H](Cc1ccccc1)C(=O)N[C@@H](CC(C)C)C(=O)N[C@@H](CC(C)C)C(=O)N[C@@H](CCCNC(=N)N)C(=O)N[C@H](C(=O)N[C@@H](CCCCN)C(=O)NCc1ccc(C(=N)N)cc1)C(C)C (Ac-LFLLRVK-{NH(4-amidinobenzyl)})
label 0

Is 0.8 strictly greater than the compound's reported Ratio Ki? compound: CC(=O)N[C@@H](CC(C)C)C(=O)N[C@@H](CC(=O)O)C(=O)N[C@@H](CC(C)C)C(=O)N[C@@H](CC(C)C)C(=O)N[C@@H](CCCNC(=N)N)C(=O)N[C@H](C(=O)N[C@@H](CCCCN)C(=O)NCc1ccc(C(=N)N)cc1)C(C)C (Ac-LDLLRVK-{NH(4-amidinobenzyl)})
label 1

* * *

- TARGET SYSTEM: Furin (Homo sapiens)
- Sequence (P09958 whole entry): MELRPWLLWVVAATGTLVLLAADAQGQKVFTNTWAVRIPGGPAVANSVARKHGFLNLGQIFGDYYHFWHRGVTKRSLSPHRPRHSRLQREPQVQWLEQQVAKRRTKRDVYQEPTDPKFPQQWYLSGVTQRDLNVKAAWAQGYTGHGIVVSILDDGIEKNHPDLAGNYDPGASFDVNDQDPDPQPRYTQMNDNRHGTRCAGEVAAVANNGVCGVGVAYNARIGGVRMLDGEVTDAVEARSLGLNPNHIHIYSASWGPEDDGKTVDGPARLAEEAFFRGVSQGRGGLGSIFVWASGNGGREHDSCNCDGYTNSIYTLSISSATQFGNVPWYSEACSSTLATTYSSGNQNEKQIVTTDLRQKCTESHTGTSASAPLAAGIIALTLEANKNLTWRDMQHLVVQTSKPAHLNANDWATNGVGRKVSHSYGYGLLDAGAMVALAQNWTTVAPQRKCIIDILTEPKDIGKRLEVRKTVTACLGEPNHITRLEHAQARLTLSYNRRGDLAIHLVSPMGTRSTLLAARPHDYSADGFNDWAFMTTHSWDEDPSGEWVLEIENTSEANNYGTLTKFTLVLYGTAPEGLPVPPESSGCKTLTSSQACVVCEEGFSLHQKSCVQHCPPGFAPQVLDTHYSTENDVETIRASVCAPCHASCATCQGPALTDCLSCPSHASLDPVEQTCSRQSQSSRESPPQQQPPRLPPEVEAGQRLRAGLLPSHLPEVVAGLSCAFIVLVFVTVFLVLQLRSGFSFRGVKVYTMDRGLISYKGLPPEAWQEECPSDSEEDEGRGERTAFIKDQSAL
- EXPERIMENT SUMMARY: Inhibition of recombinant human furin expressed in drosophila S2 cells using pyrGlu-Arg-Thr-Lys-Arg-7-amido-4-methylcoumarin as substrate after 60 mins by spectrofluorometry method
Square brackets hold non-standard residues; d marks the D form. Peptide text beside a SMILES is read from it. * marks the point of attachment. NH(4-amidinobenzyl) = N=C(N)c1ccc(CN*)cc1
In this section, each of the compounds is paired with its reported Ki.
All answers are understood in nM, so give the number only.

Examples with answers:
CC(=O)N[C@@H](CC(C)C)C(=O)N[C@@H](CC(C)C)C(=O)N[C@@H](Cc1ccccc1)C(=O)N[C@@H](CC(C)C)C(=O)N[C@@H](CCCNC(=N)N)C(=O)N[C@H](C(=O)N[C@@H](CCCCN)C(=O)NCc1ccc(C(=N)N)cc1)C(C)C (Ac-LLFLRVK-{NH(4-amidinobenzyl)})	5
CC(=O)N[C@H](CC(C)C)C(=O)N[C@@H](CC(C)C)C(=O)N[C@@H](CC(C)C)C(=O)N[C@@H](CC(C)C)C(=O)N[C@@H](CCCNC(=N)N)C(=O)N[C@H](C(=O)N[C@@H](CCCCN)C(=O)NCc1ccc(C(=N)N)cc1)C(C)C (Ac-[dL]LLLRVK-{NH(4-amidinobenzyl)})	9.8
CC(=O)N[C@@H](CC(N)=O)C(=O)N[C@@H](CC(C)C)C(=O)N[C@@H](CC(C)C)C(=O)N[C@@H](CC(C)C)C(=O)N[C@@H](CCCNC(=N)N)C(=O)N[C@H](C(=O)N[C@@H](CCCCN)C(=O)NCc1ccc(C(=N)N)cc1)C(C)C (Ac-NLLLRVK-{NH(4-amidinobenzyl)})	3.1

Would you mind telling me what Ki value was observed for CC(=O)N[C@H](C(=O)N[C@@H](CC(C)C)C(=O)N[C@@H](CC(C)C)C(=O)N[C@@H](CC(C)C)C(=O)N[C@@H](CCCNC(=N)N)C(=O)N[C@H](C(=O)N[C@@H](CCCCN)C(=O)NCc1ccc(C(=N)N)cc1)C(C)C)C(C)C (Ac-VLLLRVK-{NH(4-amidinobenzyl)}) ?
4

* * *

- TARGET SYSTEM: Proprotein convertase subtilisin/kexin type 6 (Homo sapiens, UniProt P29122)
- Sequence (P29122 whole entry): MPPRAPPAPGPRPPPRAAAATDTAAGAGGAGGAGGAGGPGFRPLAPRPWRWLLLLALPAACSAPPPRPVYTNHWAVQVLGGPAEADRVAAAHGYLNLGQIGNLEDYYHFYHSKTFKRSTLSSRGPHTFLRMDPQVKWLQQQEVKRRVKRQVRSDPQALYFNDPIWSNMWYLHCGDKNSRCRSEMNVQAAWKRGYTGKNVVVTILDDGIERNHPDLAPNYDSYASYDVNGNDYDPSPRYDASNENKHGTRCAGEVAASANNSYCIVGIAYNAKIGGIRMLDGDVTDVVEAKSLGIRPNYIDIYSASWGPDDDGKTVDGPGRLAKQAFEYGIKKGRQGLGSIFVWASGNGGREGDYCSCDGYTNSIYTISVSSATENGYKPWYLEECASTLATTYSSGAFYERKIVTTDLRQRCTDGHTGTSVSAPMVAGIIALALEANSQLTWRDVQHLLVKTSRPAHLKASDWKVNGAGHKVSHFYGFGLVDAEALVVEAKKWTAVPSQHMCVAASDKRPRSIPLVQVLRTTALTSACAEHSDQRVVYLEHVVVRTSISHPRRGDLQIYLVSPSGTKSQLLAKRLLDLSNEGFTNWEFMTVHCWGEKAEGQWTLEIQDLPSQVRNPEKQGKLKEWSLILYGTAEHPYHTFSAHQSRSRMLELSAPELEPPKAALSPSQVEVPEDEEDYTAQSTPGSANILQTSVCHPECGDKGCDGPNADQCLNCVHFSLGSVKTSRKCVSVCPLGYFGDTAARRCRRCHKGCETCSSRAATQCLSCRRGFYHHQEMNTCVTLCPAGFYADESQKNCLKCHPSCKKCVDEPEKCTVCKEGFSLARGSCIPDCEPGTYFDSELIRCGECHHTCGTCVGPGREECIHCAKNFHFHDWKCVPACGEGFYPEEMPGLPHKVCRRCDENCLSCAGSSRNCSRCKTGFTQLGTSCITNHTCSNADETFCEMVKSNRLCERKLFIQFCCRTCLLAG
- EXPERIMENT SUMMARY: Inhibition of recombinant human PACE4 expressed in drosophila S2 cells using pyrGlu-Arg-Thr-Lys-Arg-7-amido-4-methylcoumarin as substrate after 60 mins by spectrofluorometry method
Peptide text beside a SMILES is read from it. * marks the point of attachment. NH(4-amidinobenzyl) = N=C(N)c1ccc(CN*)cc1
In this section, each of the compounds is paired with its reported Ki.
All answers are understood in nM, so give the number only.

Would you mind telling me what Ki value was observed for CC(=O)N[C@@H](Cc1cnc[nH]1)C(=O)N[C@@H](CC(C)C)C(=O)N[C@@H](CC(C)C)C(=O)N[C@@H](CC(C)C)C(=O)N[C@@H](CCCNC(=N)N)C(=O)N[C@H](C(=O)N[C@@H](CCCCN)C(=O)NCc1ccc(C(=N)N)cc1)C(C)C (Ac-HLLLRVK-{NH(4-amidinobenzyl)}) ?
1.3

Would you mind telling me what Ki value was observed for CC(=O)N[C@@H](CC(C)C)C(=O)N[C@@H](CC(C)C)C(=O)N[C@@H](CO)C(=O)N[C@@H](CC(C)C)C(=O)N[C@@H](CCCNC(=N)N)C(=O)N[C@H](C(=O)N[C@@H](CCCCN)C(=O)NCc1ccc(C(=N)N)cc1)C(C)C (Ac-LLSLRVK-{NH(4-amidinobenzyl)}) ?
36

Would you mind telling me what Ki value was observed for CC(=O)N[C@@H](CC(C)C)C(=O)N[C@@H](CC(C)C)C(=O)N[C@@H](CC(C)C)C(=O)N[C@@H](CCC(N)=O)C(=O)N[C@@H](CCCNC(=N)N)C(=O)N[C@H](C(=O)N[C@@H](CCCCN)C(=O)NCc1ccc(C(=N)N)cc1)C(C)C (Ac-LLLQRVK-{NH(4-amidinobenzyl)}) ?
5

Would you mind telling me what Ki value was observed for CC(=O)N[C@@H](CC(=O)O)C(=O)N[C@@H](CC(C)C)C(=O)N[C@@H](CC(C)C)C(=O)N[C@@H](CC(C)C)C(=O)N[C@@H](CCCNC(=N)N)C(=O)N[C@H](C(=O)N[C@@H](CCCCN)C(=O)NCc1ccc(C(=N)N)cc1)C(C)C (Ac-DLLLRVK-{NH(4-amidinobenzyl)}) ?
12

* * *

- Species: Homo sapiens
- EXPERIMENT SUMMARY: Selectivity index, ratio of Ki for recombinant human furin expressed in drosophila S2 cells to Ki for recombinant human PACE4 expressed in drosophila S2 cells
- Format: cell-based
Peptide text beside a SMILES is read from it. * marks the point of attachment. NH(4-amidinobenzyl) = N=C(N)c1ccc(CN*)cc1
Cut-off 1 on Ratio Ki: below means met, at or above means not met.

Worked set:
CC(=O)N[C@@H](CC(C)C)C(=O)N[C@@H](CC(C)C)C(=O)N[C@@H](CC(C)C)C(=O)N[C@@H](Cc1ccccc1)C(=O)N[C@@H](CCCNC(=N)N)C(=O)N[C@H](C(=O)N[C@@H](CCCCN)C(=O)NCc1ccc(C(=N)N)cc1)C(C)C (Ac-LLLFRVK-{NH(4-amidinobenzyl)})	not met
CC(=O)N[C@@H](CC(C)C)C(=O)NCC(=O)N[C@@H](CC(C)C)C(=O)N[C@@H](CC(C)C)C(=O)N[C@@H](CCCNC(=N)N)C(=O)N[C@H](C(=O)N[C@@H](CCCCN)C(=O)NCc1ccc(C(=N)N)cc1)C(C)C (Ac-LGLLRVK-{NH(4-amidinobenzyl)})	not met
CSCC[C@H](NC(=O)[C@H](CC(C)C)NC(=O)[C@H](CC(C)C)NC(=O)[C@H](CC(C)C)NC(C)=O)C(=O)N[C@@H](CCCNC(=N)N)C(=O)N[C@H](C(=O)N[C@@H](CCCCN)C(=O)NCc1ccc(C(=N)N)cc1)C(C)C (Ac-LLLMRVK-{NH(4-amidinobenzyl)})	met
CC(=O)N[C@@H](CO)C(=O)N[C@@H](CC(C)C)C(=O)N[C@@H](CC(C)C)C(=O)N[C@@H](CC(C)C)C(=O)N[C@@H](CCCNC(=N)N)C(=O)N[C@H](C(=O)N[C@@H](CCCCN)C(=O)NCc1ccc(C(=N)N)cc1)C(C)C (Ac-SLLLRVK-{NH(4-amidinobenzyl)})	met
CC(=O)N[C@@H](CC(C)C)C(=O)N[C@@H](CC(C)C)C(=O)N[C@H](C(=O)N[C@@H](CC(C)C)C(=O)N[C@@H](CCCNC(=N)N)C(=O)N[C@H](C(=O)N[C@@H](CCCCN)C(=O)NCc1ccc(C(=N)N)cc1)C(C)C)C(C)C (Ac-LLVLRVK-{NH(4-amidinobenzyl)})	met
CC[C@H](C)[C@H](NC(=O)[C@H](CC(C)C)NC(C)=O)C(=O)N[C@@H](CC(C)C)C(=O)N[C@@H](CC(C)C)C(=O)N[C@@H](CCCNC(=N)N)C(=O)N[C@H](C(=O)N[C@@H](CCCCN)C(=O)NCc1ccc(C(=N)N)cc1)C(C)C (Ac-LILLRVK-{NH(4-amidinobenzyl)})	met

Is 1 strictly greater than the compound's reported Ratio Ki? compound: CC(=O)N[C@@H](CC(C)C)C(=O)N[C@@H](CC(C)C)C(=O)N[C@@H](CC(C)C)C(=O)N[C@@H](CCCNC(=N)N)C(=O)N[C@@H](CCCNC(=N)N)C(=O)N[C@H](C(=O)N[C@@H](CCCCN)C(=O)NCc1ccc(C(=N)N)cc1)C(C)C (Ac-LLLRRVK-{NH(4-amidinobenzyl)})
not met

Is 1 strictly greater than the compound's reported Ratio Ki? compound: CC(=O)N[C@@H](CCCCN)C(=O)N[C@@H](CC(C)C)C(=O)N[C@@H](CC(C)C)C(=O)N[C@@H](CC(C)C)C(=O)N[C@@H](CCCNC(=N)N)C(=O)N[C@H](C(=O)N[C@@H](CCCCN)C(=O)NCc1ccc(C(=N)N)cc1)C(C)C (Ac-KLLLRVK-{NH(4-amidinobenzyl)})
not met

Is 1 strictly greater than the compound's reported Ratio Ki? compound: CC(=O)N[C@H](C(=O)N[C@@H](CC(C)C)C(=O)N[C@@H](CC(C)C)C(=O)N[C@@H](CC(C)C)C(=O)N[C@@H](CCCNC(=N)N)C(=O)N[C@H](C(=O)N[C@@H](CCCCN)C(=O)NCc1ccc(C(=N)N)cc1)C(C)C)C(C)C (Ac-VLLLRVK-{NH(4-amidinobenzyl)})
met
